Molecular target: Phosphatidylinositol 4,5-bisphosphate 3-kinase catalytic subunit alpha isoform (Homo sapiens, UniProt P42336)
Sequence (P42336 whole entry, canonical isoform): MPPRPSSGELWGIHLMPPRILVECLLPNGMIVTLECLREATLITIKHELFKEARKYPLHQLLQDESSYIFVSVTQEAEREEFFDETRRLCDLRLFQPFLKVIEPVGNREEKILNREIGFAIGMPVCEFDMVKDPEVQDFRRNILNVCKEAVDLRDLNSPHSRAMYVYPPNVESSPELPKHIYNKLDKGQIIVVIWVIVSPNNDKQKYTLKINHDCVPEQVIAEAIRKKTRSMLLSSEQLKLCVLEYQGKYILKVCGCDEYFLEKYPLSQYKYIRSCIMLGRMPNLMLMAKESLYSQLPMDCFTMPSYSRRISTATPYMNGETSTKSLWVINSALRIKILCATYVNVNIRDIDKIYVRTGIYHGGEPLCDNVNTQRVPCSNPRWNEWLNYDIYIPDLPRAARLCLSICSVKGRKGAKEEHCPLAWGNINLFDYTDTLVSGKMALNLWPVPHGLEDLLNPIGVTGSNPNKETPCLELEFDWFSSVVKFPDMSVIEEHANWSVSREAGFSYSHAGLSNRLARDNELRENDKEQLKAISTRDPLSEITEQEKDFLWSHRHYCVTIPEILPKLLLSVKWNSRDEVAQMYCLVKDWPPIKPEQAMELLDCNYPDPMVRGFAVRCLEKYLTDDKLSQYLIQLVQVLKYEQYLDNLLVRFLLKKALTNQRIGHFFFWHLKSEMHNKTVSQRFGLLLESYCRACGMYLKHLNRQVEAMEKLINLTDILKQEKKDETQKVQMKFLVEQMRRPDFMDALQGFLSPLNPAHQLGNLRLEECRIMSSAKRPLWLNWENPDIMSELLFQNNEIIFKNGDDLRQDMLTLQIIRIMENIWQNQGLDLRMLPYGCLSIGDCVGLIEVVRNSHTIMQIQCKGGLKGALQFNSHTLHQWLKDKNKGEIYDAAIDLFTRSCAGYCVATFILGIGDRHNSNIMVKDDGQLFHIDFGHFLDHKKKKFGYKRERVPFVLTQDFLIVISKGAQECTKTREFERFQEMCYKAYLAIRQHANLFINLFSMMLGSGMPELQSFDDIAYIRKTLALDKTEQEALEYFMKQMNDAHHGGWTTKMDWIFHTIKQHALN
Assay: Inhibition of PI3Kalpha (unknown origin)
measure_name: pIC50
pIC50 (log units): -log10 of the concentration in mol/L.

structure_smiles	number
COCCNC(=O)Nc1ccc(-c2cnc(Cl)c(NS(=O)(=O)c3ccccc3)c2)cn1	6.54

Just so you know, measured pIC50 for CCNC(=O)Nc1ccc(-c2cnc(Cl)c(NS(=O)(=O)c3ccccc3)c2)cn1 came out at 6.39

* * *

System: HL-60
Test: Antiproliferative activity against human HL-60 cells assessed as inhibition of cell growth
Format: functional, cell-based
measure_name: IC50 (nM)
Entry rule: numbers only, all in nM.

A selection of reference data follows.
structure_smiles	tested_target	IC50 / nM
Oc1cccc(-c2nc(N3CCOCC3)c3oc4ncccc4c3n2)c1	HL-60	89
COCCNC(=O)Nc1ccc(-c2cnc(Cl)c(NS(=O)(=O)c3ccccc3)c2)cn1	HL-60	8700

Just so you know, measured IC50 for CC[C@H](Nc1ncnc2[nH]cnc12)c1nc2cccc(F)c2c(=O)n1-c1ccccc1 came out at 480
